Attribution: ChEMBL document CHEMBL2390892

# System: HL-60
# METHOD: Cytotoxicity against human HL60 cells assessed as growth inhibition after 48 hrs by CCK-8 assay
# Type: functional, cell-based
# CONDITION NOTES: HL-60, 48 h
Below, each entry is listed with its recorded pIC50.
The meaning of pIC50 here: minus log10 of the concentration in molar units.

>>> value_reported("COc1cc([C@@H]2c3cc4c(cc3[C@@H](n3cc(COC(=O)N5CCN(c6ccc([N+](=O)[O-])cc6)CC5)nn3)[C@H]3COC(=O)[C@H]23)OCO4)cc(OC)c1OC")
6.20
>>> value_reported("COc1cc([C@@H]2c3cc4c(cc3[C@@H](n3cc(COC(=O)N5CCN(c6ccc([N+](=O)[O-])cc6)CC5)nn3)[C@H]3COC(=O)[C@H]23)OCO4)cc(OC)c1O")
6.49
>>> value_reported("COc1cc([C@@H]2c3cc4c(cc3[C@@H](n3cc(COC(=O)N5CCOCC5)nn3)[C@H]3COC(=O)[C@H]23)OCO4)cc(OC)c1O")
7.35
>>> value_reported("COc1cc([C@@H]2c3cc4c(cc3[C@@H](n3cc(CO)nn3)[C@H]3COC(=O)[C@H]23)OCO4)cc(OC)c1OC")
6.53

[ask] # query: pIC50 | item "CCCNC(=O)OCc1cn([C@@H]2c3cc4c(cc3[C@@H](c3cc(OC)c(O)c(OC)c3)[C@H]3C(=O)OC[C@@H]32)OCO4)nn1" | system: HL-60
[reply] 6.74

[ask] Please do the same for COc1cc([C@@H]2c3cc4c(cc3[C@@H](O[C@@H]3O[C@@H]5CO[C@@H](C)O[C@H]5[C@H](O)[C@H]3O)[C@H]3COC(=O)[C@H]23)OCO4)cc(OC)c1O [ETOPOSIDE] as well.
[reply] 5.94

[ask] Please do the same for "COc1cc([C@@H]2c3cc4c(cc3[C@@H](n3cc(COC(=O)NC5CCCC5)nn3)[C@H]3COC(=O)[C@H]23)OCO4)cc(OC)c1OC" as well.
[reply] 6.43

[ask] Please do the same for "CCCNC(=O)OCc1cn([C@@H]2c3cc4c(cc3[C@@H](c3cc(OC)c(OC)c(OC)c3)[C@H]3C(=O)OC[C@@H]32)OCO4)nn1" as well.
[reply] 5.56

[ask] Please do the same for "COc1cc([C@@H]2c3cc4c(cc3[C@@H](n3cc(COC(=O)N5CCOCC5)nn3)[C@H]3COC(=O)[C@H]23)OCO4)cc(OC)c1OC" as well.
[reply] 6.20

[ask] Please do the same for "COc1cc([C@@H]2c3cc4c(cc3[C@@H](n3cc(COC(=O)N[C@@H](CCSC)C(=O)N5CCN(c6ccc([N+](=O)[O-])cc6)CC5)nn3)[C@H]3COC(=O)[C@H]23)OCO4)cc(OC)c1O" as well.
[reply] 4.80
